experiment: Oral bioavailability in beagle dog at 2 mg/kg; assay type: ADME, organism-based, Canis lupus familiaris; details: in vivo
Exercise: state measured bioavailability for each of the molecules provided.
Answer with a number only, understood to be in %.

Problem: Entry CN1CCC(S(=O)(=O)c2ccc3nc(NC(=O)NC(=O)c4cc(N5CCOCC5)ccc4Cl)sc3c2)CC1 needs its bioavailability filled in; supply it.
Solution: 31

Problem: Please supply the value of reported bioavailability for the item CN1CCN(CCCS(=O)(=O)c2ccc3nc(NC(=O)NC(=O)c4cc(N5CCOCC5)ccc4Cl)sc3c2)CC1
Solution: 87

* * *

assay: Oral bioavailability in beagle dog at 1 mg/kg; format: ADME, organism-based, Canis lupus familiaris; details: in vivo
recorded metric: bioavailability (%)
Output spec: scalar in %, unitless text.

Problem: Provide bioavailability value for the following compound: CN1CCN(CCCS(=O)(=O)c2ccc3nc(NC(=O)NC(=O)c4ccccc4Cl)sc3c2)CC1
Solution: 51

* * *

Kindly state Vd for each of the entries shown.
assay: Volume of distribution at steady state in beagle dog at 2 mg/kg, iv; format: ADME, organism-based, Canis lupus familiaris; set-up: dose 2 mg/kg, route intravenous; details: in vivo, read-out: Vdss
Give the figure together with its unit, number first.

Problem: Specify Vd for CN1CCC(S(=O)(=O)c2ccc3nc(NC(=O)NC(=O)c4cc(N5CCOCC5)ccc4Cl)sc3c2)CC1 and stop.
Solution: 0.4 L/kg

Problem: Consider the compound CN1CCN(CCCS(=O)(=O)c2ccc3nc(NC(=O)NC(=O)c4cc(N5CCOCC5)ccc4Cl)sc3c2)CC1 and give its recorded Vd.
Solution: 0.3 L/kg

* * *

test: Cmax in beagle dog at 2 mg/kg, po; assay type: ADME, organism-based, Canis lupus familiaris; set-up: dose 2 mg/kg, route oral; conditions: in vivo
I'd be grateful if you could share measured Cmax for these entries.
Quick reminder: number only, in µM, skip the unit.

Problem: Dear colleague, please send me the reported Cmax for CN1CCN(CCCS(=O)(=O)c2ccc3nc(NC(=O)NC(=O)c4cc(N5CCOCC5)ccc4Cl)sc3c2)CC1 when you can.
Solution: 11

Problem: Return Cmax (reported value) for this compound: CN1CCC(S(=O)(=O)c2ccc3nc(NC(=O)NC(=O)c4cc(N5CCOCC5)ccc4Cl)sc3c2)CC1
Solution: 1

* * *

assay: Oral bioavailability in CD1 mouse at 5 mg/kg; assay type: ADME, organism-based; conditions: in vivo
recorded metric: bioavailability
Answer format reminder: number followed by unit.

Problem: Quickly give me recorded bioavailability for CN1CCN(CCCS(=O)(=O)c2ccc3nc(NC(=O)NC(=O)c4ccccc4Cl)sc3c2)CC1
Solution: 40%

* * *

experiment: Oral bioavailability in CD1 mouse at 1.3 mg/kg; type: ADME, organism-based; settings: in vivo
recorded metric: bioavailability (%)
Field format: number, assumed %, no unit text.

Problem: For the compound CN1CCN(CCCS(=O)(=O)c2ccc3nc(NC(=O)NC(=O)c4cc(N5CCOCC5)ccc4Cl)sc3c2)CC1 , give its reported bioavailability.
Solution: 50

* * *

assay: Cmax in CD1 mouse at 5 mg/kg, po; format: ADME, organism-based; design: dose 5 mg/kg, route oral; conditions: in vivo
recorded metric: Cmax (nM)
Numbers only here, please. The scale is nM.

Problem: Dear colleague, please send me the reported Cmax for CN1CCN(CCCS(=O)(=O)c2ccc3nc(NC(=O)NC(=O)c4ccccc4Cl)sc3c2)CC1 when you can.
Solution: 710

* * *

test system: MDR1; test: Efflux ratio in MDCK cells expressing MDR1 at 10 uM; assay type: ADME, cell-based, Canis lupus familiaris; settings: dog
For each entry below, report its efflux ratio at 10 µM value.
A bare number is all that is needed in reply.

Problem: Fill in reported efflux ratio at 10 µM for this entry: COc1cc(Cl)c(C(=O)NC(=O)Nc2nc3ccc(S(=O)(=O)CCCN4CCN(C)CC4)cc3s2)cc1-n1cccn1
Solution: 46

Problem: Indicate the recorded efflux ratio at 10 µM value for this molecule: CN1CCN(CCCS(=O)(=O)c2ccc3nc(NC(=O)NC(=O)c4cccc(-n5cccn5)c4Cl)sc3c2)CC1
Solution: 25

Problem: Report measured efflux ratio at 10 µM; entry is CN1CCN(CCCS(=O)(=O)c2ccc3nc(NC(=O)NC(=O)c4cc(-c5ccccn5)ccc4Cl)sc3c2)CC1
Solution: 19

Problem: // Input: CN(C)CCCS(=O)(=O)c1ccc2nc(NC(=O)NC(=O)c3ccccc3Cl)sc2c1 . Output its efflux ratio at 10 µM only.
Solution: 1.4

Problem: For the molecule Cc1cc(C)n(-c2ccc(Cl)c(C(=O)NC(=O)Nc3nc4ccc(S(=O)(=O)CCCN5CCN(C)CC5)cc4s3)c2)n1 , give its reported efflux ratio at 10 µM.
Solution: 76

Problem: Output efflux ratio at 10 µM of CN1CCN(CCCS(=O)(=O)c2ccc3nc(NC(=O)NC(=O)c4cc5c(ccn5C)cc4Cl)sc3c2)CC1
Solution: 0.71

Problem: Please indicate efflux ratio at 10 µM recorded for CN1CCC(S(=O)(=O)c2ccc3nc(NC(=O)NC(=O)c4ccccc4Cl)sc3c2)CC1
Solution: 0.9

Problem: Entry CN1CCCN(CCCS(=O)(=O)c2ccc3nc(NC(=O)NC(=O)c4ccccc4Cl)sc3c2)CC1 needs its efflux ratio at 10 µM filled in; supply it.
Solution: 41

* * *

test: Ratio of drug level in homogenized brain to plasma in CD1 mouse at 2.7 mg/kg, po measured after 6 hrs by LC-MS/MS method; format: ADME, organism-based; set-up: dose 2.7 mg/kg, route oral; details: read-out: BPR
recorded metric: Kp at 6 h
Form field (numeric): enter value without unit.

Problem: Please supply the value of reported Kp at 6 h for the item CN1CCC(S(=O)(=O)c2ccc3nc(NC(=O)NC(=O)c4cc5c(cc4Cl)CCN5C)sc3c2)CC1
Solution: 0.15

* * *

assay: Cmax in CD1 mouse at 1.3 mg/kg, po; assay type: ADME, organism-based; design: dose 1.3 mg/kg, route oral; conditions: in vivo
recorded metric: Cmax (nM)
Field: numeric (nM). Do not append units.

Problem: Specify measured Cmax for CN1CCN(CCCS(=O)(=O)c2ccc3nc(NC(=O)NC(=O)c4cc(N5CCOCC5)ccc4Cl)sc3c2)CC1 .
Solution: 1300

* * *

Assign efflux ratio at 10 µM to each entry below.
test system: MDR1; assay: Efflux ratio in MDCK cells expressing MDR1 at 10 uM; assay type: ADME, cell-based, Canis lupus familiaris; conditions: dog
Lab note: jot the number down without any unit.

Problem: Specify efflux ratio at 10 µM for CN1CCN(CCCS(=O)(=O)c2ccc3nc(NC(=O)NC(=O)c4ccccc4Cl)sc3c2)CC1 , system MDR1.
Solution: 4.2

Problem: Please indicate recorded efflux ratio at 10 µM of CN1CCN(CCCS(=O)(=O)c2ccc3nc(NC(=O)NC(=O)c4cc(-n5cccn5)c(Cl)cc4Cl)sc3c2)CC1 measured with MDR1.
Solution: 55

Problem: Report efflux ratio at 10 µM from MDR1 testing of CCN(CC)CCCS(=O)(=O)c1ccc2nc(NC(=O)NC(=O)c3ccccc3Cl)sc2c1
Solution: 2.7

Problem: Name the value of efflux ratio at 10 µM reported for CN1CCN(CCCS(=O)(=O)c2ccc3nc(NC(=O)NC(=O)c4cc(C5CC5)ccc4Cl)sc3c2)CC1 when tested on MDR1.
Solution: 9.1

Problem: Specify the recorded efflux ratio at 10 µM for CCN(CC)CCCS(=O)(=O)c1ccc2nc(NC(=O)NC(=O)c3cc(N4CCOCC4)ccc3Cl)sc2c1 , system: MDR1.
Solution: 5.5

Problem: Write down the reported efflux ratio at 10 µM (system: MDR1) of CN1CCN(CCCS(=O)(=O)c2ccc3nc(NC(=O)NC(=O)c4cc(N5CCCC5)ccc4Cl)sc3c2)CC1
Solution: 0.55

Problem: Give the observed efflux ratio at 10 µM of CCc1ccc(Cl)c(C(=O)NC(=O)Nc2nc3ccc(S(=O)(=O)CCCN4CCN(C)CC4)cc3s2)c1 for MDR1.
Solution: 13

Problem: Fill: efflux ratio at 10 µM (MDR1) for this molecule CN1CCC(S(=O)(=O)c2ccc3nc(NC(=O)NC(=O)c4cc(N5CCCC5)ccc4Cl)sc3c2)CC1
Solution: 0.05

Problem: # return efflux ratio at 10 µM of CN1CCN(CCCS(=O)(=O)c2ccc3nc(NC(=O)NC(=O)c4cc(-n5cccn5)ccc4Cl)sc3c2)CC1 (system: MDR1)
Solution: 7.6

Problem: Give MDR1 efflux ratio at 10 µM for the following molecule: CN1CCC(S(=O)(=O)c2ccc3nc(NC(=O)NC(=O)c4cc(-n5cccn5)ccc4Cl)sc3c2)CC1
Solution: 2.5

Problem: Answer briefly: efflux ratio at 10 µM recorded on MDR1 for CN1CCC(S(=O)(=O)c2ccc3nc(NC(=O)NC(=O)c4cc5c(cc4Cl)CCN5C)sc3c2)CC1
Solution: 1.2

Problem: # assay system MDR1: give efflux ratio at 10 µM of C#Cc1ccc(Cl)c(C(=O)NC(=O)Nc2nc3ccc(S(=O)(=O)CCCN4CCN(C)CC4)cc3s2)c1
Solution: 3.3

Data provenance is ChEMBL document CHEMBL3352721.
